- Test Name: recombinant UMI read abundance after kanamycin selection (control-corrected) (log10(CPM+1)); higher = more efficient recombination; extreme values may be limits of the assay; sequences stand for … in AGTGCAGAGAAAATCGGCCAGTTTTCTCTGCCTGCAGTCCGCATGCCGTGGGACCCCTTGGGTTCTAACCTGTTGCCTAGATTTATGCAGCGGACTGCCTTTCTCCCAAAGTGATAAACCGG…AGGTTGGTTTCACT; site = the 11-nt donor;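 further: IS621 bridge recombinase in Escherichia coli cells against a fixed T5 target plasmid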
I'd appreciate it if you could supply recombinant UMI read abundance (log10) values for the items below.
Note: the reply should be a number with no unit written.

Q: Can you look up the measured recombinant UMI read abundance (log10) of AGCTCAGCATGGACCGGTTTTCCCGGTAATCCGTATTTGGA (site AGCTCAGCTTC) for me?
Result: 1.03

Q: Can you look up the measured recombinant UMI read abundance (log10) of CAACTGACATGGACCGGTTTTCCCGGTAATCCGTATTTGCA (site CAACTGACTTG) for me?
Result: 2.73

Q: Can you look up the measured recombinant UMI read abundance (log10) of ACTAGTACATGGACCGGTTTTCCCGGTAATCCGTATTTGGT (site ACTAGTTCTAC) for me?
Result: 0

Q: Can you look up the measured recombinant UMI read abundance (log10) of AAGCACGCATGGACCGGTTTTCCCGGTAATCCGTATTTGGG (site AAGTACGCTCC) for me?
Result: 0.0168

Q: Can you look up the measured recombinant UMI read abundance (log10) of GTGCTACCATGGACCGGTTTTCCCGGTAATCCGTATTTGCT (site TTGCTACCTAG) for me?
Result: 0

Q: Can you look up the measured recombinant UMI read abundance (log10) of CGATCGACATGGACCGGTTTTCCCGGTAATCCGTATTTGAT (site CGATCGACTAT) for me?
Result: 0.807

Q: Can you look up the measured recombinant UMI read abundance (log10) of TCATACCCATGGACCGGTTTTCCCGGTAATCCGTATTTGCA (site TCATACCCTTG) for me?
Result: 0.0304

Q: Can you look up the measured recombinant UMI read abundance (log10) of CCCGGTCCATGGACCGGTTTTCCCGGTAATCCGTATTTGCC (site CCCGGTCCTGG) for me?
Result: 0

Q: Can you look up the measured recombinant UMI read abundance (log10) of GAGAAACCATGGACCGGTTTTCCCGGTAATCCGTATTTGGT (site GAGAAACCTAC) for me?
Result: 0

Q: Can you look up the measured recombinant UMI read abundance (log10) of CCCTAGCCATGGACCGGTTTTCCCGGTAATCCGTATTTGCG (site CCCTAGCCTGG) for me?
Result: 0

Q: Can you look up the measured recombinant UMI read abundance (log10) of AGAAAGGCATGGACCGGTTTTCCCGGTAATCCGTATTTGCT (site CGAAAGGCTAG) for me?
Result: 0.48

Q: Can you look up the measured recombinant UMI read abundance (log10) of AGGAATACATGGACCGGTTTTCCCGGTAATCCGTATTTGCA (site AGGAATACTTG) for me?
Result: 2.11

* * *

- Test Name: recombinant UMI read abundance after kanamycin selection (control-corrected) (log10(CPM+1)); higher = more efficient recombination; extreme values may be limits of the assay; sequences stand for … in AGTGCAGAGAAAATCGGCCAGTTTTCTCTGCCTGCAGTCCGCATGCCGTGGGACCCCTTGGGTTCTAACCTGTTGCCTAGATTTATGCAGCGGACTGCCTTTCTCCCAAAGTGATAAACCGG…AGGTTGGTTTCACT; site = the 11-nt donor
Property: recombinant UMI read abundance (log10)
Note: the reply should be a number with no unit written.

Q: Can you look up the measured recombinant UMI read abundance (log10) of TGGCCGGCATGGACCGGTTTTCCCGGTAATCCGTATTTGGC (site TGGCCCGCTGC) for me?
Result: 0

Q: Can you look up the measured recombinant UMI read abundance (log10) of GGCTAGTCATGGACCGGTTTTCCCGGTAATCCGTATTTGAC (site GGCTAGTCTGT) for me?
Result: 0

Q: Can you look up the measured recombinant UMI read abundance (log10) of ATGTCGGCATGGACCGGTTTTCCCGGTAATCCGTATTTGGC (site ATGTGGGCTGC) for me?
Result: 0

Q: Can you look up the measured recombinant UMI read abundance (log10) of CCAATATCATGGACCGGTTTTCCCGGTAATCCGTATTTGTC (site CCCATATCTGA) for me?
Result: 0.0129

Q: Can you look up the measured recombinant UMI read abundance (log10) of AGACTAGCATGGACCGGTTTTCCCGGTAATCCGTATTTGTT (site AGGCTAGCTAA) for me?
Result: 0.0149

Q: Can you look up the measured recombinant UMI read abundance (log10) of GAATGGCCATGGACCGGTTTTCCCGGTAATCCGTATTTGAA (site GAATGGCCTTG) for me?
Result: 0.0104

Q: Can you look up the measured recombinant UMI read abundance (log10) of CTATTATCATGGACCGGTTTTCCCGGTAATCCGTATTTGGC (site CTATTATCTGC) for me?
Result: 2.56

Q: Can you look up the measured recombinant UMI read abundance (log10) of CTGCACACATGGACCGGTTTTCCCGGTAATCCGTATTTGAT (site CTGCACACTAT) for me?
Result: 2.25

Q: Can you look up the measured recombinant UMI read abundance (log10) of CAATGTTCATGGACCGGTTTTCCCGGTAATCCGTATTTGAA (site CAATGATCTTT) for me?
Result: 0.287

Q: Can you look up the measured recombinant UMI read abundance (log10) of TGTACACCATGGACCGGTTTTCCCGGTAATCCGTATTTGAC (site TGTACACCTAT) for me?
Result: 0.0116

Q: Can you look up the measured recombinant UMI read abundance (log10) of AGAGCATCATGGACCGGTTTTCCCGGTAATCCGTATTTGCT (site CGATCATCTAG) for me?
Result: 0

Q: Can you look up the measured recombinant UMI read abundance (log10) of CCATCAGCATGGACCGGTTTTCCCGGTAATCCGTATTTGCT (site CGATCATCTAG) for me?
Result: 0.145

Data provenance: the supplement of paper PMC11208160
